Test: qHTS Assay for Lipid Storage Modulators (AID 1519)
Conditions: Drosophila S3 cells, BODIPY lipid droplet/cell ratio, laser cytometry; measured here: cell count channel max response; cells loaded with oleic acid
Records with an inconclusive call do not appear.
In this section, each of the compounds is paired with its reported max response.
Provide the reading as a plain figure in %.

stdin: Return reported max response. Input compound: `CCC(=O)O[C@@](Cc1ccccc1)(c1ccccc1)[C@@H](C)CN(C)C`
stdout: -5.05

stdin: Return reported max response. Input compound: `C[C@@H](Cc1ccccc1)NCCC(c1ccccc1)c1ccccc1`
stdout: -11.9

stdin: Return reported max response. Input compound: CCCN(CCC)C1CCc2cccc(O)c2C1 (stereo not drawn)
stdout: -31.4

stdin: Return reported max response. Input compound: CN1[C@@H]2CC[C@H]1CC(OC1c3ccccc3CCc3ccccc31)C2 (stereo partly drawn)
stdout: -5.63

stdin: Return reported max response. Input compound: `O=[N+]([O-])c1ccc2nc(N3CCNCC3)ccc2c1`
stdout: 28.4

stdin: Return reported max response. Input compound: NC(=O)c1ccc(OCC(O)CN2CC=C(c3ccc(F)cc3)CC2)cc1 (stereo not drawn)
stdout: -43.3

stdin: Return reported max response. Input compound: `C[C@H](N)CN1CCc2ccc(Br)cc21`
stdout: -15.5

stdin: Return reported max response. Input compound: `Clc1ccc(Cl)cc1`
stdout: 8.86

stdin: Return reported max response. Input compound: `O=C1C=CC(=O)C=C1`
stdout: -25.7

stdin: Return reported max response. Input compound: `C[N+]1(C)CCN(c2ccccc2)CC1`
stdout: -21.1

====

Experiment: Cell Viability - LYMP2-026 (AID 989);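 also: cells exposed to compound for 24 h at 37 °C; nearly all actives have a fitted effect of over 50% in size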
Conditions: LYMP2-026 lymphoblastoid cell viability, qHTS; series mostly up to 92.2 µM
Results filed as inconclusive are left out. Active and inactive are the calls of the source. Calls come from the whole dose curve; as a rule, active = well fitted cell-killing curve with a large enough effect; inconclusive = small, poorly fitted or top-dose-only effect; inactive = flat fitted curve, though single readings scatter.
Hello, when you answer, please use one of the following outcomes: active, inactive

A selection of reference data follows.
compound | assigned_class
O=C(O)C(Cl)(Cl)Cl | inactive
[Cl-].[Cl-].[Hg+2] | active
C[C@H]1CC[C@@H]2[C@@H](C)[C@H]3[C@H](C[C@H]4[C@@H]5CC=C6CC(O[C@@H]7O[C@H](CO)[C@H](O)[C@H](O[C@@H]8O[C@H](CO)[C@@H](O)[C@H](O)[C@H]8O)[C@H]7O[C@H]7O[C@@H](C)[C@H](O)[C@@H](O)[C@H]7O)CC[C@]6(C)[C@H]5CC[C@]34C)N2C1 (some centres not stated) | inactive

stdin: Please state the recorded outcome for this compound: `O=[N+]([O-])c1ccc(F)c([N+](=O)[O-])c1`
stdout: inactive

stdin: Please state the recorded outcome for this compound: `C[C@H]1CCC[C@H](O)CCCCCc2cc(O)cc(O)c2C(=O)O1`
stdout: inactive

stdin: Please state the recorded outcome for this compound: `O=CC=O`
stdout: inactive

====

Test: Drug repurposing screens with cells derived from glioblastoma tumor samples (AID 1345199); also: % is scaled to controls: 0 for no effect and ±100 for the full control effect; nearly all actives have a fitted effect of over 40% in size
Details: GBM patient neurospheres viability, ATP luminescence, 48 h; at 45.9 µM (top of the series); tumour line B
Records with an inconclusive call do not appear.
measure: activity, negative = cell killing (%)
Provide the reading as a plain figure in %.

compound | activity, negative = cell killing / %
N#CN | -13.5
Oc1ccc2c3c1O[C@H]1[C@@H](O)CC[C@@]4(O)[C@@H](C2)N(CC2CCC2)CC[C@]314 | -15.8
CC(=O)OC1CN2CCC1CC2 (stereo not given) | -1.18
NCC(O)c1cccc(O)c1 (stereo not given) | -9.47

Now let's try a different one.
stdin: Return reported activity, negative = cell killing. Input compound: `C=C[C@H]1CN2CC[C@H]1C[C@H]2[C@H](OC(=O)OCC)c1ccnc2ccc(OC)cc12`
stdout: -6.26

====

System: ECU
Test: qHTS profiling for inhibitors of Plasmodium falciparum proliferation (AID 504749); also: nearly all actives have a fitted effect of over 60% in size
Settings: P. falciparum in erythrocytes, SYBR Green DNA, 72 h; series mostly up to 28.7 µM
Records with an inconclusive call do not appear. The source made the active and inactive calls. Calls follow the shape of the dose curve; as a rule, active = well fitted inhibition curve with a large enough effect; inconclusive = small, poorly fitted or top-dose-only effect; inactive = flat fitted curve, though single readings scatter.
Hello, when you answer, please use one of the following outcomes: active, inactive

molecule | assigned_class
CCCC(C)(COC(N)=O)COC(=O)NC1CC1 (stereo unspecified) | inactive
O=[N+]([O-])C(Br)(CO)CO | inactive
C=CCN=C=S | inactive
O=CC=O | inactive
CNC(=O)Oc1ccccc1C(=O)Nc1ccccc1 | active

stdin: Please state the recorded outcome for this molecule: C#CC(C)(O)CC (stereo unspecified)
stdout: inactive

stdin: Please state the recorded outcome for this molecule: `O=S(=O)(O)c1cc(O)ccc1O`
stdout: inactive

stdin: Please state the recorded outcome for this molecule: `C[CH2][Hg][S]c1ccccc1C(=O)O`
stdout: active

stdin: Please state the recorded outcome for this molecule: `[O]=[Cr](=[O])([OH])[O][Cr](=[O])(=[O])[OH]`
stdout: inactive

stdin: Please state the recorded outcome for this molecule: `O=C1CN(O)C(c2ccccc2)=c2cc(Cl)ccc2=N1`
stdout: inactive

stdin: Please state the recorded outcome for this molecule: `O=P(O)(O)C(Cl)(Cl)P(=O)(O)O`
stdout: inactive

====

System: ATS189
Assay: qHTS profiling for inhibitors of Plasmodium falciparum proliferation (AID 504749); also: nearly all actives have a fitted effect of over 60% in size
Settings: P. falciparum in erythrocytes, SYBR Green DNA, 72 h; series mostly up to 28.7 µM
Description: NIH National Institute of Allergy and Infectious Diseases [NIAID] NIH Chemical Genomics Center [NCGC] […] Because mature erythrocytes lack DNA, only Plasmodium-derived DNA is detected. NCGC Assay Protocol Summary: The SYBR Green viability assay was adapted from a method described previously (Plouffe et al., 2008). […] The following morning, fluorescence intensity at 485(14) nm excitation and 535(25) nm emission wavelengths was measured on an EnVision (Perkin Elmer) plate reader. […]
Results filed as inconclusive are left out. Calls of active or inactive are those of the source. The call rests on the fitted dose curve; in most records, active means well fitted inhibition curve with a large enough effect; inconclusive means small, poorly fitted or top-dose-only effect; inactive means flat fitted curve, though single readings scatter.
Hello, when you answer, please use one of the following outcomes: active, inactive

compound | assigned_class
N#CN | inactive
c1ccc2cc(CC3=NCCN3)ccc2c1 | inactive
CN1C2CCC1CC(OC(c1ccccc1)c1ccc(Cl)cc1)C2 (stereo not given) | active

stdin: Please state the recorded outcome for this compound: CCC(N)Cc1c[nH]c2ccccc12 (stereo not given)
stdout: inactive

stdin: Please state the recorded outcome for this compound: `O=S(=O)(O)c1cc(O)ccc1O`
stdout: inactive

stdin: Please state the recorded outcome for this compound: `CCN(CC)C(=O)/C(Cl)=C(\C)OP(=O)(OC)OC`
stdout: inactive

stdin: Please state the recorded outcome for this compound: COCC(C)N(C(=O)CCl)c1c(C)csc1C (stereo not given)
stdout: inactive

stdin: Please state the recorded outcome for this compound: COc1ccc(OC)c(C(O)C(C)N)c1 (stereo not given)
stdout: inactive

stdin: Please state the recorded outcome for this compound: `COc1ccc2c3c1O[C@H]1C(=O)CC[C@H]4[C@@H](C2)N(C)CC[C@]314`
stdout: inactive

stdin: Please state the recorded outcome for this compound: ClCC1CO1 (stereo not given)
stdout: inactive

stdin: Please state the recorded outcome for this compound: `CCOP(=O)(OCC)O/C(=C/Cl)c1ccc(Cl)cc1Cl`
stdout: inactive

stdin: Please state the recorded outcome for this compound: CC(Cc1ccccc1)NC=O (stereo not given)
stdout: inactive

stdin: Please state the recorded outcome for this compound: `CC(C)CCON=O`
stdout: inactive

stdin: Please state the recorded outcome for this compound: `C[C@@H](Cc1ccccc1)NCCC(c1ccccc1)c1ccccc1`
stdout: inactive

stdin: Please state the recorded outcome for this compound: `[O]=[Cd]`
stdout: inactive

====

Tested on: FAB9
Assay: qHTS profiling for inhibitors of Plasmodium falciparum proliferation (AID 504749); also: nearly all actives have a fitted effect of over 60% in size
Settings: P. falciparum in erythrocytes, SYBR Green DNA, 72 h; series mostly up to 28.7 µM
Records with an inconclusive call do not appear. Active and inactive are the calls of the source. The call rests on the fitted dose curve; in most records, active means well fitted inhibition curve with a large enough effect; inconclusive means small, poorly fitted or top-dose-only effect; inactive means flat fitted curve, though single readings scatter.
Hello, when you answer, please use one of the following outcomes: active, inactive

A selection of reference data follows.
compound | assigned_class
CN1c2ccccc2C(NCCCCCCC(=O)O)c2ccc(Cl)cc2S1(=O)=O (centres undefined) | inactive
CCNC(C)Cc1cccc(C(F)(F)F)c1 (centres undefined) | inactive
CCCN1CCCC2Cc3[nH]ncc3CC21 (centres undefined) | inactive
[N-]=[N+]=CC(=O)OCC(N)C(=O)O (centres undefined) | inactive

Consider the record given below.
stdin: Please state the recorded outcome for this compound: CCCC(C)(COC(N)=O)COC(=O)NC1CC1 (centres undefined)
stdout: inactive

====

System: C33A
Assay: Primary qHTS to identify gynecologic anti-cancer compounds using libraries of approved drugs and bioactive compounds (AID 1345084); also: nearly all actives have a fitted effect of over 55% in size
Settings: Gynecologic cancer cell panel viability, ATPlite luminescence, 48 h; series mostly up to 57.5 µM
Inconclusive results are not listed. Calls of active or inactive are those of the source. Calls come from the whole dose curve; as a rule, active = well fitted cell-killing curve with a large enough effect; inconclusive = small, poorly fitted or top-dose-only effect, or effect the other way; inactive = flat fitted curve, though single readings scatter.
Hello, when you answer, please use one of the following outcomes: true (1) = active, false (0) = inactive

A selection of reference data follows.
compound | assigned_class
CN1CCC[C@@H]1Cc1c[nH]c2ccc(Nc3ncccc3[N+](=O)[O-])cc12 | false (0)
COC(=O)C1(C)CCC(O)C2(C)c3cc(O)c(C(C)C)cc3C(O)C(OC(C)=O)C12 (configuration not stated) | false (0)
COc1c(C(C)C)cc2c(c1O)[C@@]1(C(=O)O)CCCC(C)(C)C1CC2 (some centres not stated) | false (0)
Cn1ncnc1COc1nn2c(-c3c(F)cccc3F)nnc2cc1C1CCC1 | false (0)
Clc1ccc(N2C[C@H]3CC[C@@H](C2)N3)nn1 | false (0)
C=CC(C)(C)c1[nH]c2cccc3c2c1C[C@@H]1[C@@H]3[C@@H](OC(C)=O)[C@H](C)CN1C | false (0)
COC(=O)C1(C)CCC(=O)C2(C)c3c(O)cc(C(C)C)cc3C(O)C(OC(C)=O)C12 (configuration not stated) | false (0)
COC1C(O)C(C)OC(OC2C(CO)O[C@@H](O[C@@H]3CC4CCC5C(CC[C@]6(C)[C@@H](C7=CC(=O)OC7)CC[C@]56O)[C@@]4(C)[C@H](O)C3)C(O)C2O)C1O (some centres not stated) | true (1)

stdin: Please state the recorded outcome for this compound: COC(=O)C12C(=O)C(C)(O)C(=O)C1(C)C(C)=CC1C34CCC(OC3=O)C(C)(CO)C4CCC12C (configuration not stated)
stdout: false (0)

stdin: Please state the recorded outcome for this compound: `CC(C)(O)[C@H]1O[C@H]2CC[C@@]3(C)[C@@](O)(CC[C@H]4Cc5c([nH]c6ccccc56)[C@@]43C)C2=CC1=O`
stdout: false (0)

stdin: Please state the recorded outcome for this compound: CCC1NC(=O)C2C(Cl)C(Cl)CN2C(=O)C(C(C)O)NC(=O)CC(c2ccccc2)NC(=O)C(CO)NC1=O (configuration not stated)
stdout: false (0)

Cited source: PubChem BioAssay (NCATS)
